PROTOCOL_SUMMARY: HLM stability
Assay type: in vitro ADME
CONDITION_PARAMETERS: human, liver microsomes; read-out: HLM (t1/2)
EXPERIMENTAL_ENDPOINT: half-life (min)
Value expressed in min; do not type the unit.

Please give measured half-life of the following entry: CC(C)OC(=O)C1=CN(C(=O)c2ccc(F)c(F)c2)CC(C)(C)c2c1[nH]c1ccccc21 [Reference Compound 2]
18
